Molecular target: Amine oxidase [flavin-containing] B (Rattus norvegicus)
Sequence (P19643 whole entry): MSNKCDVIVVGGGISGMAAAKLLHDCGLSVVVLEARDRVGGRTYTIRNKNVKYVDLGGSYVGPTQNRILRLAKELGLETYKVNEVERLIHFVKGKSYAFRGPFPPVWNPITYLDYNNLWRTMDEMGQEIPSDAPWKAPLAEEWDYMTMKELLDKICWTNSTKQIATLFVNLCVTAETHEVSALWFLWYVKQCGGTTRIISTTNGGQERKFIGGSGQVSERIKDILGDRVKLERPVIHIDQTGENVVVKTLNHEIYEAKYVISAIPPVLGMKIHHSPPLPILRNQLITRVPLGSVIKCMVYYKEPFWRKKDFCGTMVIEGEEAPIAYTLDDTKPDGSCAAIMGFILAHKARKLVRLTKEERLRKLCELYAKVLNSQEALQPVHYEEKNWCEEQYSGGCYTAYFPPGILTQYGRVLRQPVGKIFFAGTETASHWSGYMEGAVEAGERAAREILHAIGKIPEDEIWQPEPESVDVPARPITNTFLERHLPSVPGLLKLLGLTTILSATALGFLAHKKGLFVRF
attribute.measured: Ki (µM)
Your answer is read as µM, so omit the unit and give the number.

Request: Ki, test system Amine oxidase [flavin-containing] B (Rattus norvegicus), entry CCOc1ccc2cc(CC(C)N)ccc2c1 (centres undefined)
13.6

Request: Ki, test system Amine oxidase [flavin-containing] B (Rattus norvegicus), entry COc1ccc2cc(CC(C)N)ccc2c1 (centres undefined)
16.3

Request: Ki, test system Amine oxidase [flavin-containing] B (Rattus norvegicus), entry CCCCOc1ccc2cc(CC(C)NCc3ccccc3)ccc2c1 (centres undefined)
22.2

Request: Ki, test system Amine oxidase [flavin-containing] B (Rattus norvegicus), entry CC(N)Cc1ccc2cc(OCc3ccccc3)ccc2c1 (centres undefined)
2.56

Request: Ki, test system Amine oxidase [flavin-containing] B (Rattus norvegicus), entry COc1ccc2cc(CC(C)NCc3ccccc3)ccc2c1 (centres undefined)
24.7

Request: Ki, test system Amine oxidase [flavin-containing] B (Rattus norvegicus), entry CCCOc1ccc2cc(CC(C)N)ccc2c1 (centres undefined)
13.5

Request: Ki, test system Amine oxidase [flavin-containing] B (Rattus norvegicus), entry CC(N)Cc1ccc(OCc2ccccc2)cc1 (centres undefined)
0.71

Data provenance: ChEMBL document CHEMBL1152788
